What IC50 was measured for each of the following?
Molecular target: recombinant Human Phosphodiesterase B2 (PDE4B2) (Homo sapiens, UniProt Q07343)
Sequence (Q07343 1-564 isoform Q07343-2): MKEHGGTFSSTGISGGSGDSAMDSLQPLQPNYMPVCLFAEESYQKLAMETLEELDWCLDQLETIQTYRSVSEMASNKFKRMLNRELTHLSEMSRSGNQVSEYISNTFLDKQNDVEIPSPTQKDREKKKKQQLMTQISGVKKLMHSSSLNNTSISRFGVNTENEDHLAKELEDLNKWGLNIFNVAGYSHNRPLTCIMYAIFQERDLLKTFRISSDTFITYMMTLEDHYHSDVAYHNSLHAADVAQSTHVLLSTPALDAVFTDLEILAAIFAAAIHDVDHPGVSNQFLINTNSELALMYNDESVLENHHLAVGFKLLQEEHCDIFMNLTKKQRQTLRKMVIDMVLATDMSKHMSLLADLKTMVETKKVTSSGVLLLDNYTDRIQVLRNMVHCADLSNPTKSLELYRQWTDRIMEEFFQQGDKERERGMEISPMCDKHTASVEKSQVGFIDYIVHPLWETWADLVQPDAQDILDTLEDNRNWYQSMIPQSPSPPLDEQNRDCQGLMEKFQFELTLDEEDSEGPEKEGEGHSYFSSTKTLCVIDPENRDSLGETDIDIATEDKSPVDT
Test: Human Phosphodiesterase B2 Radiometric Assay (yttrium silicate SPA beads, [3H]cyclic AMP)
Assay type: biochemical
Conditions: recombinant human PDE4B2, radiometric SPA assay, 8 nM [3H]cyclic AMP; read-out: PDE4B2 pIC50 (converted)
Method: Human Phosphodiesterase B2 Radiometric Assay The assay uses recombinant Human Phosphodiesterase B2 (PDE4B2) produced in house (PrAZL0163), stored at −20° C. […] Bound [3H]cyclic AMP was measured using a Topcount NXT (Packard Bioscience, UK). pIC50 values (presented in Table 15) were determined using Xlfit3 curve fitting, using model 205.
Write the number in nM without appending the unit.

Query: Give recombinant Human Phosphodiesterase B2 (PDE4B2) (Homo sapiens, UniProt Q07343) IC50 for the following molecule: CC(C)(C)OC(=O)NCc1ccc(-c2cccc(-n3c(=O)n([C@H]4CC[C@@H](NC(=O)c5cn6cc(F)ccc6n5)CC4)c(=O)c4cc(F)cnc43)c2)cc1 [Example 21]
Reply: 0.0501

Query: Give recombinant Human Phosphodiesterase B2 (PDE4B2) (Homo sapiens, UniProt Q07343) IC50 for the following molecule: Cc1cc(C(=O)N[C@H]2CC[C@@H](n3c(=O)c4cc(F)cnc4n(-c4cccc(-c5ccc(CN6CCCCC6)cc5)c4)c3=O)CC2)nn1C [Example 112]
Reply: 0.0501

Query: Give recombinant Human Phosphodiesterase B2 (PDE4B2) (Homo sapiens, UniProt Q07343) IC50 for the following molecule: CC(C)CCNCc1ccc(-c2cccc(-n3c(=O)n([C@H]4CC[C@@H](NC(=O)c5cn6c(n5)CCCC6)CC4)c(=O)c4cc(F)cnc43)c2)cc1 [Example 122]
Reply: 0.0501

###

What IC50 was measured for each of the following?
target: recombinant Human Phosphodiesterase B2 (PDE4B2) (Homo sapiens, UniProt Q07343); test: Human Phosphodiesterase B2 Radiometric Assay (yttrium silicate SPA beads, [3H]cyclic AMP); assay type: biochemical; conditions: recombinant human PDE4B2, radiometric SPA assay, 8 nM [3H]cyclic AMP; read-out: PDE4B2 pIC50 (converted)
Write the number in nM without appending the unit.

Query: Annotate the compound CC(C)[C@H](N)C(=O)N[C@H]1CC[C@@H](n2c(=O)c3cc(F)cnc3n(-c3cccc(-c4ccc(CN5CCCN(C)CC5)cc4)c3)c2=O)CC1 with its measured IC50.
Reply: 0.398

Query: Annotate the compound O=C(N[C@H]1CC[C@@H](n2c(=O)c3cc(F)cnc3n(-c3cccc(-c4ccccc4)c3)c2=O)CC1)c1cn2ccccc2n1 with its measured IC50.
Reply: 0.0316

Query: Annotate the compound O=c1c2cc(F)cnc2n(-c2cccc(-c3ccccc3)c2)c(=O)n1[C@H]1CC[C@@H](NCc2cn3cc(F)ccc3n2)CC1 with its measured IC50.
Reply: 0.794

Query: Annotate the compound O=C(NC1CN2CCC1CC2)c1cccc(-n2c(=O)n([C@H]3CC[C@@H](NC(=O)c4cn5cc(F)ccc5n4)CC3)c(=O)c3cc(F)cnc32)c1 (some centres unmarked) with its measured IC50.
Reply: 20

Query: Annotate the compound CC(=O)N[C@H]1CC[C@@H](n2c(=O)c3cc(F)cnc3n(-c3cccc(-c4ccc(CN5CCN(C(C)C)CC5)cc4)c3)c2=O)CC1 with its measured IC50.
Reply: 0.251
